- Target Or System: HLA-B*44:02
- Experiment Notes: IEDB peptide-MHC binding, purified MHC/competitive/radioactivity; filed as Kd, often an IC50 or EC50 that approximates it; bounds were set here for any values at or beyond the usual limits of such assays
- Measurement Conditions: source organism: Mammarenavirus machupoense
Kd for assorted sequences
A number alone suffices; assume µM.

Check HLA-B*44:02 data and give Kd for `NDNFLMRNV` . 9.96

Give Kd; test system HLA-B*44:02; sequence `SDHLISEML` 12.2

Report value only: Kd, HLA-B*44:02, `KEINLLSQT` 17

Consider the record given below.
Look up and report Kd, with HLA-B*44:02 as system, for `AEWLEMICF` 0.0446

---

- Target Or System: HLA-B*07:02
- Experiment Notes: IEDB peptide-MHC binding, purified MHC/direct/fluorescence; filed as Kd, often an IC50 or EC50 that approximates it; bounds were set here for any values at or beyond the usual limits of such assays
- Measurement Conditions: source organism: Cowpox virus
pKd: −log10 of the molar value.
Quantity Name: pKd

# assay system HLA-B*07:02: give pKd of `VYSFDESSF` ≤ 4.70

---

- Target Or System: HLA-B*27:05
- Experiment Notes: IEDB peptide-MHC binding, purified MHC/direct/fluorescence; filed as Kd, often an IC50 or EC50 that approximates it; bounds were set here for any values at or beyond the usual limits of such assays
- Measurement Conditions: source organism: Orthohantavirus andesense
Quantity Name: pKd
Please treat pKd as minus the base-10 logarithm of the molar concentration.

Tell me its pKd given `GRFQEALKK` as the entry. 7.14

---

- Target Or System: HLA-B*57:01
- Experiment Notes: IEDB peptide-MHC binding, purified MHC/direct/fluorescence; filed as Kd, often an IC50 or EC50 that approximates it; bounds were set here for any values at or beyond the usual limits of such assays
- Measurement Conditions: source organism: dengue virus type 3
Quantity Name: pKd
pKd (log units): -log10 of the concentration in mol/L.

Quick one: give measured pKd for `VSGKLIHEW` 7.36

---

- Target Or System: HLA-B*15:17
- Experiment Notes: IEDB peptide-MHC binding, purified MHC/direct/fluorescence; filed as Kd, often an IC50 or EC50 that approximates it; bounds were set here for any values at or beyond the usual limits of such assays
- Measurement Conditions: source organism: Bacillus anthracis str. 'Ames Ancestor'
pKd: −log10 of the molar value.
Quantity Name: pKd

Quote pKd reported for `TKAGMAQYL` please. ≤ 4.70

---

- Target Or System: HLA-A*02:19
- Experiment Notes: IEDB peptide-MHC binding, purified MHC/competitive/fluorescence; filed as Kd, often an IC50 or EC50 that approximates it; bounds were set here for any values at or beyond the usual limits of such assays
- Measurement Conditions: source organism: Coxiella burnetii 'MSU Goat Q177'
Quantity Name: Kd

Provide one value: measured Kd of `AVDWYQQRI` ≥ 20 µM

---

- Target Or System: HLA-B*15:17
- Experiment Notes: IEDB peptide-MHC binding, purified MHC/direct/fluorescence; filed as Kd, often an IC50 or EC50 that approximates it; bounds were set here for any values at or beyond the usual limits of such assays
- Measurement Conditions: source organism: Burkholderia mallei ATCC 23344
Quantity Name: Kd (nM)
Give the value in nM but do not write nM after it.

Determine from records and report Kd for `LVTGAGSGF` 148

---

Parameter Kd: see the listing below.
- Target Or System: HLA-A*02:03
- Experiment Notes: IEDB peptide-MHC binding, purified MHC/direct/fluorescence; filed as Kd, often an IC50 or EC50 that approximates it; bounds were set here for any values at or beyond the usual limits of such assays
- Measurement Conditions: source organism: Orthohantavirus sangassouense

Please report the measured Kd for `MRNTIMASK` ≥ 20 µM

More entries:
Note down Kd recorded for `SPGDNSAKF` ≥ 20 µM

---

- Target Or System: HLA-B*58:01
- Experiment Notes: IEDB peptide-MHC binding, purified MHC/direct/fluorescence; filed as Kd, often an IC50 or EC50 that approximates it; bounds were set here for any values at or beyond the usual limits of such assays
- Measurement Conditions: source organism: Burkholderia mallei
pKd: −log10 of the molar value.
Quantity Name: pKd

Report pKd for `RRSLLAHVR` ≤ 4.70

---

Kd reference
- Target Or System: HLA-B*51:01
- Experiment Notes: IEDB peptide-MHC binding, purified MHC/competitive/radioactivity; filed as Kd, often an IC50 or EC50 that approximates it; bounds were set here for any values at or beyond the usual limits of such assays
- Measurement Conditions: source organism: SARS coronavirus Tor2
Answers without a unit are incomplete; give the number and then its unit.

Please give measured Kd of the following entry: `APYMVGDVI` 80 nM

***
For the sequence `TPRDLGACI` , give its reported Kd. 3890 nM

---

- Target Or System: HLA-A*32:15
- Experiment Notes: IEDB peptide-MHC binding, purified MHC/competitive/fluorescence; filed as Kd, often an IC50 or EC50 that approximates it; bounds were set here for any values at or beyond the usual limits of such assays
- Measurement Conditions: source organism: Mycobacterium tuberculosis variant bovis BCG str. Pasteur 1173P2
Quantity Name: Kd (nM)
# value in nM; strip the unit string

Specify reported Kd for the sequence shown: `FMFDYIPPV` 203

---

- Target Or System: HLA-A*26:01
- Experiment Notes: IEDB peptide-MHC binding, purified MHC/competitive/radioactivity; filed as Kd, often an IC50 or EC50 that approximates it; bounds were set here for any values at or beyond the usual limits of such assays
- Measurement Conditions: source organism: Lassa virus Josiah
Quantity Name: Kd

Read the entry `GIDVTDLFA` and write its reported Kd. ≥ 77.9 µM

---

- Target Or System: HLA-A*01:01
- Experiment Notes: IEDB peptide-MHC binding, purified MHC/direct/fluorescence; filed as Kd, often an IC50 or EC50 that approximates it; bounds were set here for any values at or beyond the usual limits of such assays
- Measurement Conditions: source organism: Burkholderia mallei
pKd: −log10 of the molar value.
Quantity Name: pKd

Tell me its pKd given `RRSLLAHVR` as the entry. ≤ 4.70

Alright, here's another sequence for you.
Give pKd for the following sequence: `ALRRRTGTR` ≤ 4.70

---

- Target Or System: HLA-B*18:01
- Experiment Notes: IEDB peptide-MHC binding, purified MHC/direct/fluorescence; filed as Kd, often an IC50 or EC50 that approximates it; bounds were set here for any values at or beyond the usual limits of such assays
- Measurement Conditions: source organism: Alto Paraguay hantavirus
Quantity Name: pKd
Convention used: pKd is expressed as -log10 of the molar concentration.

Answer with pKd of `KEISNQEPL` measured for HLA-B*18:01. 6.45

---

- Target Or System: HLA-B*15:01
- Experiment Notes: IEDB peptide-MHC binding, purified MHC/direct/fluorescence; filed as Kd, often an IC50 or EC50 that approximates it; bounds were set here for any values at or beyond the usual limits of such assays
- Measurement Conditions: source organism: Brucella suis
Quantity Name: Kd (nM)
State the answer as a number, implicitly in nM.

Give the reported Kd for this sequence. `AENGWGFYF` 285

---

- Target Or System: HLA-B*51:01
- Experiment Notes: IEDB peptide-MHC binding, purified MHC/competitive/radioactivity; filed as Kd, often an IC50 or EC50 that approximates it; bounds were set here for any values at or beyond the usual limits of such assays
- Measurement Conditions: source organism: Hepatitis C virus (isolate H)
pKd: −log10 of the molar value.
Quantity Name: pKd

Look up and report measured pKd for this entry: `HPALVFDITK` ≤ 4.16

---

- Target Or System: HLA-A*68:02
- Experiment Notes: IEDB peptide-MHC binding, purified MHC/competitive/radioactivity; filed as Kd, often an IC50 or EC50 that approximates it; bounds were set here for any values at or beyond the usual limits of such assays
- Measurement Conditions: source organism: Dengue virus 2 Jamaica/1409/1983
Quantity Name: Kd (nM)
Could you give me the number in nM? Just the number is fine.

Previously resolved entries follow.
Please look at this sequence and report its Kd: `ATMANEMGFL` 68.4

Read the entry `MAVGMVSILA` and write its reported Kd. 3.29

Now look at this one.
State, in one line, measured Kd of `MSTYGWNLV` 11.9

---

- Target Or System: HLA-B*40:13
- Experiment Notes: IEDB peptide-MHC binding, purified MHC/competitive/fluorescence; filed as Kd, often an IC50 or EC50 that approximates it; bounds were set here for any values at or beyond the usual limits of such assays
- Measurement Conditions: source organism: Escherichia coli O139:H28 str. E24377A
Quantity Name: pKd
Friendly reminder that pKd comes from taking -log10 of the concentration in mol/L.

For `REWGWRIPF` , write its pKd. 7.21

---

- Target Or System: HLA-C*04:01
- Experiment Notes: IEDB peptide-MHC binding, purified MHC/competitive/fluorescence; filed as Kd, often an IC50 or EC50 that approximates it; bounds were set here for any values at or beyond the usual limits of such assays
- Measurement Conditions: source organism: Rattus norvegicus
pKd: −log10 of the molar value.
Quantity Name: pKd

Determine from records and report pKd for `YYRYPTGESY` ≤ 5.30
